System: A2780 (ovarian carcinoma)
assay_notes: SRB cytotoxicity assay, A2780
Assay type: cell-based, human
particulars: SI = EC50 (NIH 3T3)/EC50 (A2780)
Threshold 1. Selectivity index (SI) A2780 below it: Met. Selectivity index (SI) A2780 at it or above: Not met.

C[C@@H]1CC[C@]2(C(=O)NCCN3CCNCC3)CC[C@]3(C)C(=CCC4[C@@]5(C)CC[C@H](O)C(C)(C)C5CC[C@]43C)C2[C@H]1C (stereo partly drawn) [Compound 14] | Not met

For this compound, is Selectivity index (SI) A2780 lower than 1? CC(=O)O[C@H]1CC[C@@]2(C)C(CC[C@]3(C)C2CC=C2C4[C@@H](C)[C@H](C)CC[C@]4(C(=O)NCCOCCN)CC[C@]23C)C1(C)C (stereo partly drawn) [Compound 9] Met

For this compound, is Selectivity index (SI) A2780 lower than 1? C[C@@H]1CC[C@]2(C(=O)NCCN(C)C)CC[C@]3(C)C(=CCC4[C@@]5(C)CC[C@H](O)C(C)(C)C5CC[C@]43C)C2[C@H]1C (stereo partly drawn) [Compound 11] Not met

For this compound, is Selectivity index (SI) A2780 lower than 1? C[C@@H]1CC[C@]2(C(=O)NCCCCN)CC[C@]3(C)C(=CCC4[C@@]5(C)CC[C@H](O)C(C)(C)C5CC[C@]43C)C2[C@H]1C (stereo partly drawn) [Compound 15] Not met

For this compound, is Selectivity index (SI) A2780 lower than 1? C=C(C)C1CC[C@]2(C(=O)NCCCCN)CC[C@]3(C)C(CCC4[C@@]5(C)CC[C@H](O)C(C)(C)C5CC[C@]43C)C12 (stereo partly drawn) [Compound 29] Met

* * *

reported_metric: melting point

Answered examples (4):
C=C(C)C1CC[C@]2(C(=O)NCCCCN)CC[C@]3(C)C(CCC4[C@@]5(C)CC[C@H](OC(C)=O)C(C)(C)C5CC[C@]43C)C12 (some centres unmarked) | 133 to 135 °C
C=C(C)C1CC[C@]2(C(=O)NCCN3CCCCC3)CC[C@]3(C)C(CCC4[C@@]5(C)CC[C@H](OC(C)=O)C(C)(C)C5CC[C@]43C)C12 (some centres unmarked) | 124 to 127 °C
CC(=O)O[C@H]1CC[C@@]2(C)C(CC[C@]3(C)C2CC=C2C4[C@@H](C)[C@H](C)CC[C@]4(C(=O)NCCN)CC[C@]23C)C1(C)C (some centres unmarked) | 202 to 205 °C
C=C(C)C1CC[C@]2(C(=O)NCCCCN)CC[C@]3(C)C(CCC4[C@@]5(C)CC[C@H](O)C(C)(C)C5CC[C@]43C)C12 (some centres unmarked) | 130 to 133 °C

Moving on to the next molecule.
Please look up its melting point: C[C@@H]1CC[C@]2(C(=O)NCCCCN)CC[C@]3(C)C(=CCC4[C@@]5(C)CC[C@H](O)C(C)(C)C5CC[C@]43C)C2[C@H]1C (some centres unmarked) 177 to 180 °C

* * *

System: HT29 (colon adenocarcinoma)
assay_notes: SRB cytotoxicity assay, HT29
Type: cell-based, human
particulars: SI = EC50 (NIH 3T3)/EC50 (HT29)
reported_metric: Selectivity index (SI) HT29
Please give the numeric answer without any surrounding text.

Answered examples (2):
CC(=O)O[C@H]1CC[C@@]2(C)C(CC[C@]3(C)C2CC=C2C4[C@@H](C)[C@H](C)CC[C@]4(C(=O)NCCN4CCCC4)CC[C@]23C)C1(C)C (stereo partly drawn) | 1.57
CC(=O)O[C@H]1CC[C@@]2(C)C(CC[C@]3(C)C2CC=C2C4[C@@H](C)[C@H](C)CC[C@]4(C(=O)NCCOCCN)CC[C@]23C)C1(C)C (stereo partly drawn) | 1.93

Moving on to the next compound.
Please look up its Selectivity index (SI) HT29: C=C(C)C1CC[C@]2(C(=O)NCCN3CCCC3)CC[C@]3(C)C(CCC4[C@@]5(C)CC[C@H](O)C(C)(C)C5CC[C@]43C)C12 (stereo partly drawn) 1.00

* * *

System: 8505C (thyroid carcinoma)
assay_notes: SRB cytotoxicity assay, 8505C
Assay type: cell-based, human
particulars: Homo sapiens; SRB assay, 96 h of treatment, 8505C
Procedure: The cytotoxicity of ursolic and betulinic carboxamides 3–30 was determined in sulforhodamine B (SRB) assays. […] The cytotoxicity of the compounds was evaluated using the sulforhodamine-B (Kiton-Red S, ABCR) micro culture colorimetric assay. […] Tris base solution (200 µL, 10 mM) was added to each well and absorbance was measured at λ = 570 nm using a 96-well plate reader (Tecan Spectra, Crailsheim, Germany). […]
Structures can show the parent of a compound that is named as a salt.
EC50 for assorted molecules
Please reply with the bare figure in µM and do not write the unit itself.

Answered examples (2):
CC(=O)O[C@H]1CC[C@@]2(C)C(CC[C@]3(C)C2CC=C2C4[C@@H](C)[C@H](C)CC[C@]4(C(=O)NCCCCN)CC[C@]23C)C1(C)C (stereo partly drawn) [Compound 8] | 3.2
C=C(C)C1CC[C@]2(C(=O)NCCOCCN)CC[C@]3(C)C(CCC4[C@@]5(C)CC[C@H](O)C(C)(C)C5CC[C@]43C)C12 (stereo partly drawn) [Compound 30] | 0.2

Please look up its EC50: C=C(C)C1CC[C@]2(C(=O)NCCN)CC[C@]3(C)C(CCC4[C@@]5(C)CC[C@H](OC(C)=O)C(C)(C)C5CC[C@]43C)C12 (stereo partly drawn) [Compound 17] 2.5

Please look up its EC50: COc1cccc2c1C(=O)c1c(O)c3c(c(O)c1C2=O)C[C@@](O)(C(=O)CO)C[C@@H]3O[C@H]1C[C@H](N)[C@H](O)[C@H](C)O1 [DRC, doxorubicin hydrochloride, reference compound] 1.1

Please look up its EC50: C[C@@H]1CC[C@]2(C(=O)NCCN)CC[C@]3(C)C(=CCC4[C@@]5(C)CC[C@H](O)C(C)(C)C5CC[C@]43C)C2[C@H]1C (stereo partly drawn) [Compound 10] 3.7

* * *

System: 518A2 (melanoma)
assay_notes: SRB cytotoxicity assay, 518A2
Type: cell-based, human
particulars: SI = EC50 (NIH 3T3)/EC50 (518A2)
Experimental: The cytotoxicity of ursolic and betulinic carboxamides 3–30 was determined in sulforhodamine B (SRB) assays. […] The cytotoxicity of the compounds was evaluated using the sulforhodamine-B (Kiton-Red S, ABCR) micro culture colorimetric assay. […] Tris base solution (200 µL, 10 mM) was added to each well and absorbance was measured at λ = 570 nm using a 96-well plate reader (Tecan Spectra, Crailsheim, Germany). […]
Selectivity index (SI) 518A2 for assorted compounds
Please give the numeric answer without any surrounding text.

Answered examples (2):
C=C(C)C1CC[C@]2(C(=O)NCCN3CCCCC3)CC[C@]3(C)C(CCC4[C@@]5(C)CC[C@H](O)C(C)(C)C5CC[C@]43C)C12 (stereo partly drawn) [Compound 27] | 0.80
CC(=O)O[C@H]1CC[C@@]2(C)C(CC[C@]3(C)C2CC=C2C4[C@@H](C)[C@H](C)CC[C@]4(C(=O)NCCN4CCCC4)CC[C@]23C)C1(C)C (stereo partly drawn) [Compound 5] | 0.73

Please look up its Selectivity index (SI) 518A2: C=C(C)C1CC[C@]2(C(=O)NCCCCN)CC[C@]3(C)C(CCC4[C@@]5(C)CC[C@H](O)C(C)(C)C5CC[C@]43C)C12 (stereo partly drawn) [Compound 29] 1.25

Please look up its Selectivity index (SI) 518A2: C[C@@H]1CC[C@]2(C(=O)NCCOCCN)CC[C@]3(C)C(=CCC4[C@@]5(C)CC[C@H](O)C(C)(C)C5CC[C@]43C)C2[C@H]1C (stereo partly drawn) [Compound 16] 0.76

Please look up its Selectivity index (SI) 518A2: C=C(C)C1CC[C@]2(C(=O)NCCN3CCCC3)CC[C@]3(C)C(CCC4[C@@]5(C)CC[C@H](OC(C)=O)C(C)(C)C5CC[C@]43C)C12 (stereo partly drawn) [Compound 19] 0.80

Please look up its Selectivity index (SI) 518A2: C=C(C)C1CC[C@]2(C(=O)NCCN3CCCC3)CC[C@]3(C)C(CCC4[C@@]5(C)CC[C@H](O)C(C)(C)C5CC[C@]43C)C12 (stereo partly drawn) [Compound 26] 1.00

Please look up its Selectivity index (SI) 518A2: C[C@@H]1CC[C@]2(C(=O)NCCN(C)C)CC[C@]3(C)C(=CCC4[C@@]5(C)CC[C@H](O)C(C)(C)C5CC[C@]43C)C2[C@H]1C (stereo partly drawn) [Compound 11] 1.02

Please look up its Selectivity index (SI) 518A2: C=C(C)C1CC[C@]2(C(=O)NCCN(C)C)CC[C@]3(C)C(CCC4[C@@]5(C)CC[C@H](OC(C)=O)C(C)(C)C5CC[C@]43C)C12 (stereo partly drawn) [Compound 18] 0.77

Please look up its Selectivity index (SI) 518A2: CC(=O)O[C@H]1CC[C@@]2(C)C(CC[C@]3(C)C2CC=C2C4[C@@H](C)[C@H](C)CC[C@]4(C(=O)NCCN4CCCCC4)CC[C@]23C)C1(C)C (stereo partly drawn) [Compound 6] 0.59

Please look up its Selectivity index (SI) 518A2: C[C@@H]1CC[C@]2(C(=O)NCCN)CC[C@]3(C)C(=CCC4[C@@]5(C)CC[C@H](O)C(C)(C)C5CC[C@]43C)C2[C@H]1C (stereo partly drawn) [Compound 10] 1.05

Please look up its Selectivity index (SI) 518A2: C[C@@H]1CC[C@]2(C(=O)NCCCCN)CC[C@]3(C)C(=CCC4[C@@]5(C)CC[C@H](O)C(C)(C)C5CC[C@]43C)C2[C@H]1C (stereo partly drawn) [Compound 15] 0.60

Please look up its Selectivity index (SI) 518A2: C=C(C)C1CC[C@]2(C(=O)NCCOCCN)CC[C@]3(C)C(CCC4[C@@]5(C)CC[C@H](OC(C)=O)C(C)(C)C5CC[C@]43C)C12 (stereo partly drawn) [Compound 23] 0.53

Please look up its Selectivity index (SI) 518A2: C=C(C)C1CC[C@]2(C(=O)NCCOCCN)CC[C@]3(C)C(CCC4[C@@]5(C)CC[C@H](O)C(C)(C)C5CC[C@]43C)C12 (stereo partly drawn) [Compound 30] 0.80
